# test-system: Prothrombin (Bos taurus) (UniProt P00735)
# Sequence (P00735 whole entry, looked up): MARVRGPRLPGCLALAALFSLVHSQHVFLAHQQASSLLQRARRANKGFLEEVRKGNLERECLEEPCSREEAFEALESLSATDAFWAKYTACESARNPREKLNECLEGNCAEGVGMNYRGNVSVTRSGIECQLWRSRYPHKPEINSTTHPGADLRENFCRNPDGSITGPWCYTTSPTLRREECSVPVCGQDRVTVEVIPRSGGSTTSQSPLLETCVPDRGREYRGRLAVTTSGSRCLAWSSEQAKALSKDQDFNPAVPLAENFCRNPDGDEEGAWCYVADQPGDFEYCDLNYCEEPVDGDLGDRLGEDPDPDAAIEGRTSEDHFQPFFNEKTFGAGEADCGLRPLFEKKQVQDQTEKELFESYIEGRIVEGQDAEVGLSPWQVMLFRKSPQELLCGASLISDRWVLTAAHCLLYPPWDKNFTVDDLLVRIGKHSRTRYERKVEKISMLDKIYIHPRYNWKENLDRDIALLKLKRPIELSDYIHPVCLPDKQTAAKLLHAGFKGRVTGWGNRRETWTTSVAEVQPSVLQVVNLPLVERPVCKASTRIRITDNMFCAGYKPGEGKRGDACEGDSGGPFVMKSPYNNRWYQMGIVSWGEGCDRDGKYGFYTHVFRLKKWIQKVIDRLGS
# assay-method-text: bovine thrombin protease inhibition, confirmation, counter-screen for Rpn11 inhibitor project, biochemical, fluorescence polarization, single concentration (AID 602333);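 also: plate controls were thrombin with DMSO for no effect and buffer wells lacking thrombin for full effect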
# measurement-context: bovine thrombin cleavage of Ub4-pepOG, at 20 µM, stronger effect = higher value
The whole screen tested about 1,900 compounds, of which about 240 (13%) were called active. These entries were drawn from the full list.
property: inhibition (%)
Answers are plain numbers, in %.

Check out these entries, answers already filled in.
compound: CN(C)CCOC1c2ccccc2-c2ccccc21
test-system: Prothrombin (Bos taurus) (UniProt P00735)
obs-value: -14
//
compound: C/C(=N/Nc1nc(-c2ccccc2)c(CC(=O)O)s1)c1ccccc1
test-system: Prothrombin (Bos taurus) (UniProt P00735)
obs-value: 11.8
//
compound: CCN1CCCC1CNC(=O)c1cc2c(=O)n(C)c3ccccc3c2n1C (stereo unspecified)
test-system: Prothrombin (Bos taurus) (UniProt P00735)
obs-value: -4.94

Hi, could you look up inhibition for each item in my list?
1. Cc1c(NC(=O)CSc2cccc3cccnc23)c(=O)n(-c2ccccc2)n1C
2. Cc1nc2ccc(C(=O)N3CCSCC3)cc2s1
3. C=CCn1c(=S)[nH]c2scc(-c3ccco3)c2c1=O

1. -11.3
2. -9.73
3. -8.62

====

# test-system: Prothrombin (Bos taurus)
# assay-method-text: bovine thrombin protease inhibition, confirmation, counter-screen for Rpn11 inhibitor project, biochemical, fluorescence polarization, single concentration (AID 602333)
# measurement-context: bovine thrombin cleavage of Ub4-pepOG, at 20 µM, stronger effect = higher value
The whole screen tested about 1,900 compounds, of which about 240 (13%) were called active. These entries were drawn from the full list.
property: inhibition

Check out these entries, answers already filled in.
compound-string: C=CCn1c(SCC(=O)NCc2ccccc2)nnc1-c1cc(Br)ccc1O
test-system: Prothrombin (Bos taurus)
inhibition: -3.07% (inactive)

compound-string: Oc1ccc(/C=N/Nc2nc(-c3ccccc3F)nc3ccccc23)c(O)c1
test-system: Prothrombin (Bos taurus)
inhibition: 5.18% (inactive)

compound-string: Cc1ccc(Nc2nc(Cl)c(C=O)s2)cc1
test-system: Prothrombin (Bos taurus)
inhibition: 47% (active)

Hi, could you look up inhibition for each item in my list?
1. Cc1c(N=Nc2ccc(N(C)C)cc2)c(=O)n(-c2ccccc2)n1C
2. C=CC[n+]1c(-c2ccc(C)cc2)csc1NNC(=O)Nc1ccccc1
3. CC(C)(C)NC(=O)CSC(=Nc1ccccc1F)NC#N
4. CCc1ccc(-c2cc(C(=O)NCc3ccco3)c3ccccc3n2)s1
5. Cc1cc(/C=C2/SC(=O)N(CC(=O)N3CCCC3)C2=O)ccc1N1CCOCC1
6. CCNCc1cc2cc(C)ccc2[nH]c1=O

["37.7% (inactive)", "4.61% (inactive)", "4.77% (inactive)", "33.8% (inactive)", "23.9% (inactive)", "7.4% (inactive)"]

Hi, could you look up inhibition for each item in my list?
1. CCOc1cc(/C=C2\SC(N3CCCCC3)=NC2=O)ccc1O
2. CN(C)c1ccc(-n2cccc2/C=C2/SC(=Nc3ccc(F)cc3)NC2=O)cc1

1. 21% (inactive)
2. -29.3% (inactive)

====

Task for the reader: assign each of the following compounds its reported inhibition.
# test-system: Prothrombin (Bos taurus) (UniProt P00735)
# assay-method-text: bovine thrombin protease inhibition, confirmation, counter-screen for Rpn11 inhibitor project, biochemical, fluorescence polarization, single concentration (AID 602333)
# measurement-context: bovine thrombin cleavage of Ub4-pepOG, at 20 µM, stronger effect = higher value
In all, about 1,900 compounds went through this assay and about 240 (13%) were called active. Not all results are given here.

Check out these entries, answers already filled in.
compound: CCN(CC)C(=O)CSc1nc2ccccc2n1CC(=O)N1CCN(c2ccccc2OC)CC1
property: inhibition
obs-value: -2.4% (inactive)

compound: CC(=O)/C(=N\Nc1ccc(Cl)cc1Cl)Sc1cccc2cccnc12
property: inhibition
obs-value: 1.24% (inactive)

compound: Cc1ccc(N=Cc2c(O)cc(C)oc2=O)c(C)c1
property: inhibition
obs-value: 8.99% (inactive)

compound: CCOc1ccc(NC(=O)c2ccc(NC(=O)COC(=O)c3ccc(NC(=O)CC#N)cc3)cc2)cc1
property: inhibition
obs-value: -22.9% (inactive)

compound: CCOc1ccc(-n2c(O)c(/C=N/Nc3nnc(C)c(=O)[nH]3)c3ccccc3c2=O)cc1
property: inhibition
obs-value: -1.67% (inactive)

Hi, could you look up inhibition for each item in my list?
1. CC(C)Oc1ccc(/C=C(\NC(=O)/C=C/c2ccco2)C(=O)NCCc2nc3ccccc3[nH]2)cc1
2. Cc1sc2nc(COC(=O)C(NC(=O)c3ccc(Cl)cc3Cl)C(C)C)[nH]c(=O)c2c1C (stereo not given)
3. COc1cccc(/C=C(/CC(=O)Nc2ccc(N3CCOCC3)cc2)c2nc3ccccc3s2)c1

21% (inactive)
13.5% (inactive)
7.25% (inactive)

Hi, could you look up inhibition for each item in my list?
1. Cc1ccc2cc(C#N)c(NCCNC(=S)NCCCN3CCOCC3)nc2c1
2. CCC(C)Cn1c(O)cc2nn(-c3nc4ccccc4s3)c(=O)c-2c1C (stereo not given)

-7.45% (inactive)
3.33% (inactive)

====

# test-system: Prothrombin (Bos taurus) (UniProt P00735)
# assay-method-text: bovine thrombin protease inhibition, confirmation, counter-screen for Rpn11 inhibitor project, biochemical, fluorescence polarization, single concentration (AID 602333);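 also: plate controls were thrombin with DMSO for no effect and buffer wells lacking thrombin for full effect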
# measurement-context: bovine thrombin cleavage of Ub4-pepOG, at 20 µM, stronger effect = higher value
Among all 1,900 compounds or so, about 240 (13%) were called active. A selection follows.
property: inhibition (%)
Numbers only, in %.

Hi, could you look up inhibition for each item in my list?
1. Cc1ccc(NC(=O)CN2CCc3ccccc3C2)cc1
2. N#Cc1c(-c2cccs2)nc(SCC(=O)c2ccc(Br)cc2)[nH]c1=O
3. O=C(CCS(=O)(=O)c1cccc2nonc12)NCCc1ccccc1Cl
4. O=C(OCc1cc2ccccc2[nH]c1=O)c1cccnc1

-14.3
15.6
-6.4
-12.2

Hi, could you look up inhibition for each item in my list?
1. O=C(COc1cccc(F)c1)Oc1ccc(C(=O)c2ccccc2)cc1
2. CCc1ccc(NC(=O)CS(=O)CC(=O)NCCCc2ccccc2)cc1 (configuration not stated)
3. CSC1=N/C(=C\C=C\c2cccs2)C(=O)S1
4. CCCOc1ccc(Cn2c(O)cc(=O)[nH]c2=O)cc1
5. CC(=O)c1sc(N/N=C/c2ccc(C(C)C)cc2)nc1C

[-6.51, 5.42, 3.5, 7.31, -6.77]

====

# test-system: Prothrombin (Bos taurus)
# assay-method-text: bovine thrombin protease inhibition, confirmation, counter-screen for Rpn11 inhibitor project, biochemical, fluorescence polarization, single concentration (AID 602333);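 also: plate controls were thrombin with DMSO for no effect and buffer wells lacking thrombin for full effect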
# measurement-context: bovine thrombin cleavage of Ub4-pepOG, at 20 µM, stronger effect = higher value
The campaign covered roughly 1,900 compounds. About 240 (13%) were called active. Not all results are given here.
Task for the reader: assign each of the following molecules its reported inhibition.
Numbers only, in %.

Check out these entries, answers already filled in.
molecule: C=CC1=C(C(=O)O)N2C(=O)[C@@H](NC(=O)/C(=N/OCC(=O)O)c3csc(N)n3)[C@H]2SC1
result-unit: %
inhibition: -49.6
--
molecule: CCC/C=C(\CCC)C(NC(=O)Cc1ccccc1)c1ccc(C(=O)OC)cc1 (stereo not given)
result-unit: %
inhibition: -11.1
--
molecule: COc1cccc(NC(=O)C(C)Oc2ccccc2)c1 (stereo not given)
result-unit: %
inhibition: -2.75
--
molecule: COC1=C/C(=C/c2c(N)n3nc(CC(=O)N4CCOCC4)sc3nc2=O)C=CC1=O
result-unit: %
inhibition: 36

Next molecule, inhibition to be filled in.
# inhibition (molecule: `Cc1cc(/C=N/Nc2ccc([N+](=O)[O-])cn2)c(C)n1-c1cccc(C(=O)O)c1` ) is -0.18

====

# test-system: Prothrombin (Bos taurus)
# assay-method-text: bovine thrombin protease inhibition, confirmation, counter-screen for Rpn11 inhibitor project, biochemical, fluorescence polarization, single concentration (AID 602333);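 also: plate controls were thrombin with DMSO for no effect and buffer wells lacking thrombin for full effect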
# measurement-context: bovine thrombin cleavage of Ub4-pepOG, at 20 µM, stronger effect = higher value
The campaign covered roughly 1,900 compounds. About 240 (13%) were called active. These entries were drawn from the full list.
property: inhibition

Check out these entries, answers already filled in.
compound-string: CCCCCCCCCCOC(=O)Cn1c(COc2cccc(OC)c2)[n+](C)c2ccccc21
property: inhibition
obs-value: -11.8% (inactive)
//
compound-string: CC1CCN(c2ccc3c(c2)S(=O)(=O)c2cc(C(=O)O)ccc2C3=O)CC1
property: inhibition
obs-value: 18.1% (inactive)
//
compound-string: COc1ccc(CC(=O)Nc2ccc(-c3nnc(-c4ccc(C)cc4)o3)cc2)cc1
property: inhibition
obs-value: -14.6% (inactive)

Next compound, inhibition to be filled in.
# inhibition (compound: `Nc1nonc1-n1nnc(C(=O)N/N=C/c2cc(Br)ccc2O)c1CSC1=NCCS1` ) is 2.28% (inactive)
